Data origin: patent US4585866A

# procedure details: LD50 in the mouse
# Assay type: in vivo
# condition notes: in vivo; mouse, oral
# key: entry, value: LD50
Provide the reading as a plain figure in mg/kg.

# input Name the recorded LD50 of the item Cc1cc(C)cc(C(=O)O[C@H]2C[C@H]3CC[C@@H](C2)N3C)c1 [tropyl 3,5-dimethylbenzoate] in your answer.
# output 116

# input Name the recorded LD50 of the item COc1cc(OC)cc(C(=O)O[C@H]2C[C@H]3CC[C@@H](C2)N3C)c1 [tropyl 3,5-dimethoxybenzoate] in your answer.
# output 160

# input Name the recorded LD50 of the item CN1[C@@H]2CC[C@H]1C[C@@H](OC(=O)c1cc(Cl)cc(Cl)c1)C2 [tropyl 3,5-dichlorobenzoate] in your answer.
# output 90

----------
# experimental system: rabbit heart (5-HT M receptor) (Oryctolagus cuniculus, UniProt A0A5F9C9J3)
# Construct: RABBIT HEART; from tissue; host or cells: rabbit heart
# Sequence (A0A5F9C9J3 1-494): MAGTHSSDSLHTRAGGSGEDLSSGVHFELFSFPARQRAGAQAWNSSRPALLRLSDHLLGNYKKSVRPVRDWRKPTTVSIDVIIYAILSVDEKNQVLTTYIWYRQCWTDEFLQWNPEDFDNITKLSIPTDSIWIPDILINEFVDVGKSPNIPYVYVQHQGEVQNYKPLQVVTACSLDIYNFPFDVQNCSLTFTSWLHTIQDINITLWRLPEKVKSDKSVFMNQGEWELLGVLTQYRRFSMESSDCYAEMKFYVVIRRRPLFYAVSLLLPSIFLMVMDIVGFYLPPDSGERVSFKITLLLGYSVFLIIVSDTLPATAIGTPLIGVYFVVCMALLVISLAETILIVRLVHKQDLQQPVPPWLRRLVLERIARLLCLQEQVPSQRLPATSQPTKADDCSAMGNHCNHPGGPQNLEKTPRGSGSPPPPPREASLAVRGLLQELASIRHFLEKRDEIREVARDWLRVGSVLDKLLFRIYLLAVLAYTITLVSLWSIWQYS
# procedure details: Inhibition of standard response to 5-HT, rabbit heart
# Format: cell-based
# condition notes: rabbit heart, agonist 5-HT; read-out: Concentration to inhibit standard response to stimulants by 50% (IC50)
reported metric: IC50

Cc1cc(C)cc(C(=O)O[C@H]2C[C@H]3CC[C@@H](C2)N3C)c1 [tropyl 3,5-dimethylbenzoate] ... 1.03 nM

# input Name the recorded IC50 of the item COc1cc(OC)cc(C(=O)O[C@H]2C[C@H]3CC[C@@H](C2)N3C)c1 [tropyl 3,5-dimethoxybenzoate] in your answer.
# output 9.4 nM

----------
# procedure details: LD50 in the rat
# condition notes: in vivo, iv
# key: entry, value: LD50

Check out these entries, answers already filled in.
CN1[C@@H]2CC[C@H]1C[C@@H](OC(=O)c1cc(Cl)cc(Cl)c1)C2 [tropyl 3,5-dichlorobenzoate] ... 14 mg/kg
COc1cc(OC)cc(C(=O)O[C@H]2C[C@H]3CC[C@@H](C2)N3C)c1 [tropyl 3,5-dimethoxybenzoate] ... 13 mg/kg

Now take the following compound into account.
# input Name the recorded LD50 of the item Cc1cc(C)cc(C(=O)O[C@H]2C[C@H]3CC[C@@H](C2)N3C)c1 [tropyl 3,5-dimethylbenzoate] in your answer.
# output 9 mg/kg

----------
# System: guinea-pig ileum
# procedure details: Inhibition of standard response to acetylcholine, guinea-pig ileum
# Assay type: cell-based
# condition notes: Cavia porcellus, agonist acetylcholine, read-out: Concentration to inhibit standard response to stimulants by 50% (IC50)
reported metric: IC50 (µM)
Provide the reading as a plain figure in µM.

CN1[C@@H]2CC[C@H]1C[C@@H](OC(=O)c1cc(Cl)cc(Cl)c1)C2 [tropyl 3,5-dichlorobenzoate] ... 8.05

Now take the following molecule into account.
# input Name the recorded IC50 of the item COc1cc(OC)cc(C(=O)O[C@H]2C[C@H]3CC[C@@H](C2)N3C)c1 [tropyl 3,5-dimethoxybenzoate] in your answer.
# output 9.56
